system: HLA-A*24; assay: MHC binding assay, UV-ligand exchange with beta2m ELISA (exchange yield), HLA-A*24; parameters: species or system human; details: binding to HLA-A*24, UV-ligand exchange
ENDPOINT_NAME: Peptide exchange (MHC class I binding score, peptide exchange yield)

Sample records with Peptide exchange (MHC class I binding score, peptide exchange yield):
| SUBSTANCE | OBSERVED_VALUE |
| --- | --- |
| 158 (IYEETRGVLKVF; listed as Homo sapiens) [compound 158] | +++ (50%-75% = +++) |
| 297 (TYIDTRTVF; listed as Homo sapiens) [compound 297] | ++++ (>=75% = ++++) |
| 382 (AYLPPLQQVF; listed as Homo sapiens) [compound 382] | +++ (50%-75% = +++) |
| 185 (QYLVHVNDL; listed as Homo sapiens) [compound 185] | ++++ (>=75% = ++++) |
| 303 (LYSVIKEDF; listed as Homo sapiens) [compound 303] | +++ (50%-75% = +++) |

Turning now to a further substance:
Give Peptide exchange (MHC class I binding score, peptide exchange yield) for 184 (IYSVGAFENF; listed as Homo sapiens) [compound 184]
++++ (>=75% = ++++)

====

test system: HLA-A*24; experiment: MHC binding assay, UV-ligand exchange with beta2m ELISA (exchange yield), HLA-A*24; set-up: species or system human; details: binding to HLA-A*24, UV-ligand exchange
ENDPOINT_NAME: Peptide exchange (MHC class I binding score, peptide exchange yield)

Sample records with Peptide exchange (MHC class I binding score, peptide exchange yield):
| SUBSTANCE | OBSERVED_VALUE |
| --- | --- |
| 118 (KYLNSVQYI; listed as Homo sapiens) [compound 118] | +++ (50%-75% = +++) |
| 316 (VYFEGSDFKF; listed as Homo sapiens) [compound 316] | +++ (50%-75% = +++) |
| 244 (VHFEDTGKTLLF; listed as Homo sapiens) [compound 244] | +++ (50%-75% = +++) |
| 235 (VYKDSIYYI; listed as Homo sapiens) [compound 235] | +++ (50%-75% = +++) |
| 373 (GYISNGELF; listed as Homo sapiens) [compound 373] | +++ (50%-75% = +++) |

Turning now to a further substance:
Give Peptide exchange (MHC class I binding score, peptide exchange yield) for 242 (VYGEPRELL; listed as Homo sapiens) [compound 242]
+++ (50%-75% = +++)

====

tested on: HLA-A*24; assay: MHC binding assay, UV-ligand exchange with beta2m ELISA (exchange yield), HLA-A*24; design: species or system human; conditions: binding to HLA-A*24, UV-ligand exchange
ENDPOINT_NAME: Peptide exchange (MHC class I binding score, peptide exchange yield)

| SUBSTANCE | OBSERVED_VALUE |
| --- | --- |
| 370 (RFIGIPNQF; listed as Homo sapiens) [compound 370] | +++ (50%-75% = +++) |
| 239 (VYAIFRILL; listed as Homo sapiens) [compound 239] | +++ (50%-75% = +++) |
| 376 (VYTPVASRQSL; listed as Homo sapiens) [compound 376] | +++ (50%-75% = +++) |

The measurements presented in this section are drawn from patent US10130693B2.
